Target: SPM-1 (São Paulo metallo-β-lactamase; SPM-1* for 19F-labelled variants) (Pseudomonas aeruginosa, UniProt Q8G9Q0, Y58C)
Sequence (Q8G9Q0 29-276 Y58C): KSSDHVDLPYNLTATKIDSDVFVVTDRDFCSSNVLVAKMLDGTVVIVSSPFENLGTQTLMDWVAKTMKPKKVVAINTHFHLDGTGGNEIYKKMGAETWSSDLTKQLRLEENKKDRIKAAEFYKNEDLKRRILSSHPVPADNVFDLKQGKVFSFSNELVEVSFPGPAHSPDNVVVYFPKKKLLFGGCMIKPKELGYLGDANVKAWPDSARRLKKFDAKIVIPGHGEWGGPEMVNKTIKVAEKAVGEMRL
Conditions: Cys58 labelled with CH2COCF3 (BTFA); meropenem up to 400 uM, 40 uM protein, 50 mM Tris pH 7.5, 9:1 H2O/D2O; product formed in situ; presence of this pair in Table S3 not seen
measured-parameter: Kd (µM)
Write the number in µM without appending the unit.

Tell me measured Kd for CC(O)C(C(=O)O)C1NC(C(=O)O)=C(SC2CNC(C(=O)N(C)C)C2)C1C (stereo not shown) [hydrolyzed meropenem] please.
100
